Organism: Rattus norvegicus
Experiment: Open TG-GATES - Regimen: Single
Format: toxicity, organism-based, Sprague-Dawley
Set-up: regimen Single, gender Male, age 6 weeks
Settings: in vivo, po, 100 mg/kg, 6 h, tissue Blood, route gavage, dose level High
Entries and their measured MCHC follow.
Number first, unit second.

Illustrative cases are given below, each with its answer.
CN(C)CCN(Cc1cccs1)c1ccccn1 | 33.3%
CN(C)CCCN1c2ccccc2CCc2ccc(Cl)cc21 [CLOMIPRAMINE] | 32.2%
CN(C)CCCN1c2ccccc2CCc2ccccc21 [IMIPRAMINE] | 32.2%

Next compound, MCHC to be filled in.
Kindly note the recorded MCHC for CC1=C(/C=C/C(C)=C/C=C/C(C)=C/CO)C(C)(C)CCC1 [RETINOL] , which is 34.2%

* * *

Entries and their measured Na follow.
Species: Rattus norvegicus
Test: Open TG-GATES - Regimen: Single
Type: toxicity, organism-based, Sprague-Dawley
Set-up: regimen Single, gender Male, age 6 weeks
Conditions: in vivo, po, 100 mg/kg, 24 h, tissue Plasma, route gavage, dose level Low
All answers are understood in meq/L, so give the number only.

COC1=CC(=O)C[C@@H](C)[C@]12Oc1c(Cl)c(OC)cc(OC)c1C2=O | 141.8
COc1ccc2[nH]c([S+]([O-])Cc3ncc(C)c(OC)c3C)nc2c1 (centres undefined) | 140.2
NC(N)=Nc1nc(CSCCC(N)=NS(N)(=O)=O)cs1 | 140.6

Kindly note the recorded Na for CCOC(=O)CCC(=O)O[C@H]1[C@H](O[C@@H]2[C@@H](C)[C@H](O[C@H]3C[C@@](C)(OC)[C@@H](O)[C@H](C)O3)[C@@H](C)C(=O)O[C@H](CC)[C@@](C)(O)[C@H](O)[C@@H](C)C(=O)[C@H](C)C[C@@]2(C)O)O[C@H](C)C[C@@H]1N(C)C [ERYTHROMYCIN ETHYLSUCCINATE] , which is 142.4

* * *

Species: Rattus norvegicus
Assay: Open TG-GATES - Regimen: Single
Format: toxicity, organism-based, Sprague-Dawley
Design: regimen Single, gender Male, age 6 weeks
Conditions: in vivo, po, 0 mg/kg, 24 h, tissue Blood, route gavage, dose level Control
RECORDED_ENDPOINT: Lym

CN(C)CCCN1c2ccccc2CCc2ccccc21 | 76.2%
CN1C(=O)CN=C(c2ccccc2)c2cc(Cl)ccc21 | 81.6%
Cc1ccc(C)c(OCCCC(C)(C)C(=O)O)c1 | 78.2%
O=C(CCCN1CCC(O)(c2ccc(Cl)cc2)CC1)c1ccc(F)cc1 | 75.4%
CCCNC(=O)NS(=O)(=O)c1ccc(Cl)cc1 [CHLORPROPAMIDE] | 80%
COC1=CC(=O)C[C@@H](C)[C@]12Oc1c(Cl)c(OC)cc(OC)c1C2=O | 79.2%
CCOc1ccc(NC(=O)CC(C)O)cc1 (configuration not stated) | 79%
CC/C(=C(\c1ccccc1)c1ccc(OCCN(C)C)cc1)c1ccccc1 | 70.6%

Kindly note the recorded Lym for CCOC(=O)CCC(=O)O[C@H]1[C@H](O[C@@H]2[C@@H](C)[C@H](O[C@H]3C[C@@](C)(OC)[C@@H](O)[C@H](C)O3)[C@@H](C)C(=O)O[C@H](CC)[C@@](C)(O)[C@H](O)[C@@H](C)C(=O)[C@H](C)C[C@@]2(C)O)O[C@H](C)C[C@@H]1N(C)C [ERYTHROMYCIN ETHYLSUCCINATE] , which is 83.8%

Kindly note the recorded Lym for `COc1cc2c(c(OC)c1OC)-c1ccc(OC)c(=O)cc1[C@@H](NC(C)=O)CC2` , which is 77.2%

Kindly note the recorded Lym for `CN(C)CCN(Cc1cccs1)c1ccccn1` , which is 79.2%

Kindly note the recorded Lym for `CC1=C(/C=C/C(C)=C/C=C/C(C)=C/CO)C(C)(C)CCC1` , which is 79.4%

Kindly note the recorded Lym for COc1ccc2[nH]c([S+]([O-])Cc3ncc(C)c(OC)c3C)nc2c1 (configuration not stated) , which is 78.6%

Kindly note the recorded Lym for `NC(N)=Nc1nc(CSCCC(N)=NS(N)(=O)=O)cs1` , which is 78.4%

Kindly note the recorded Lym for `NNC(=O)c1ccncc1` , which is 76%

Kindly note the recorded Lym for `C[C@@H]1C[C@H]2[C@@H]3CCC4=CC(=O)C=C[C@]4(C)[C@@]3(F)[C@@H](O)C[C@]2(C)[C@@]1(O)C(=O)CO` , which is 73.4%

Kindly note the recorded Lym for `CN(C)CCCN1c2ccccc2CCc2ccc(Cl)cc21` , which is 82.6%
